test system: HGC-27; experiment: Antiproliferative activity against human HGC-27 cells assessed as cell growth inhibition after 72 hrs by MTT assay; assay type: functional, cell-based; conditions: HGC-27, 72 h
// reported pIC50 per item
pIC50 field: float, defined as -log10 of concentration (mol/L).

Example entries begin here.
[
  {
    "compound string": "CC(=O)Nc1n[nH]c2cc(-c3cnn(CC(=O)Nc4ccc(C)c(C(F)(F)F)c4)c3)ccc12",
    "target": "HGC-27",
    "metric name": "pIC50",
    "measurement": 6.44
  },
  {
    "compound string": "Cc1ccc(NC(=O)Cn2cc(-c3ccc4c(NC(=O)C5CC5)n[nH]c4c3)c(C)n2)cc1C(F)(F)F",
    "target": "HGC-27",
    "metric name": "pIC50",
    "measurement": 6.19
  },
  {
    "compound string": "CNS(=O)(=O)c1cc(Nc2n[nH]c3cc(-c4cnn(CC(=O)Nc5ccc(Cl)c(C(F)(F)F)c5)c4)ccc23)ccc1C",
    "target": "HGC-27",
    "metric name": "pIC50",
    "measurement": 6.41
  },
  {
    "compound string": "Cn1cc2ccc(Nc3n[nH]c4cc(-c5cnn(CC(=O)Nc6ccc(Cl)c(C(F)(F)F)c6)c5)ccc34)cc2n1",
    "target": "HGC-27",
    "metric name": "pIC50",
    "measurement": 5.30
  }
]

input: # return pIC50 of Cc1ccc(NC(=O)Cc2cccc(-c3ccc4c(NC(=O)C5CC5)n[nH]c4c3)c2)cc1C(F)(F)F (system: HGC-27)
output: 4.81

input: # return pIC50 of Cc1ccc(NC(=O)Cn2cc(-c3ccc4c(NC(=O)C5CCCC5)n[nH]c4c3)cn2)cc1C(F)(F)F (system: HGC-27)
output: 6.30

input: # return pIC50 of Cn1cc(Nc2n[nH]c3cc(-c4cnn(CC(=O)Nc5ccc(Cl)c(C(F)(F)F)c5)c4)ccc23)cn1 (system: HGC-27)
output: 4.90

input: # return pIC50 of Cc1ccc(NC(=O)Cc2ccc(-c3ccc4c(NC(=O)C5CC5)n[nH]c4c3)s2)cc1C(F)(F)F (system: HGC-27)
output: 5.51

input: # return pIC50 of Nc1n[nH]c2cc(-c3cnn(CC(=O)Nc4ccc(Cl)c(C(F)(F)F)c4)c3)ccc12 (system: HGC-27)
output: 5.11

input: # return pIC50 of Cc1ccc(NC(=O)Cn2cc(-c3ccc4c(NC(=O)C(C)C)n[nH]c4c3)cn2)cc1C(F)(F)F (system: HGC-27)
output: 6.41

----------
system: GES1; experiment: Cytotoxicity against human GES-1 cells assessed as inhibition of cell growth incubated for 72 hrs by MTT assay; assay type: cell-based; details: GES1, 72 h
metric name: pIC50
pIC50 field: float, defined as -log10 of concentration (mol/L).

Example entries begin here.
[
  {
    "compound string": "Nc1n[nH]c2cc(-c3cnn(CC(=O)Nc4ccc(Cl)c(C(F)(F)F)c4)c3)ccc12",
    "pIC50": 4.92
  },
  {
    "compound string": "O=C(Cn1cc(-c2ccc3c(NC(=O)C4CC4)n[nH]c3c2)cn1)Nc1cc(C(F)(F)F)ccc1F",
    "pIC50": 4.60
  },
  {
    "compound string": "Cc1ccc(NC(=O)Cn2cc(-c3ccc4c(NCC5CC5)n[nH]c4c3)cn2)cc1C(F)(F)F",
    "pIC50": 4.92
  }
]

input: Supply pIC50 value. Item: O=C(Cn1cc(-c2ccc3c(Nc4cccnc4)n[nH]c3c2)cn1)Nc1ccc(Cl)c(C(F)(F)F)c1
output: 4.89

input: Supply pIC50 value. Item: Cc1ccc(NC(=O)Cc2cccc(-c3ccc4c(NC(=O)C5CC5)n[nH]c4c3)c2)cc1C(F)(F)F
output: 4.31

input: Supply pIC50 value. Item: Nc1n[nH]c2cc(-c3cnn(CC(=O)Nc4cc(C(F)(F)F)ccc4F)c3)ccc12
output: 5.12

input: Supply pIC50 value. Item: Cc1ccc(NC(=O)Cn2nc(C)c(-c3ccc4c(NC(=O)C5CC5)n[nH]c4c3)c2C)cc1C(F)(F)F
output: 4.93
